Origin of the recorded values: patent US20100135948A1

Target: T1, (D31)2/28 scFv
T1 construct: Human anti-Dsg3/Dsg1 scFv from the PV(1) phage library (pComb3X, nickel-purified, HA-detected); also called pathogenic PV mAb
Assay: ELISA inhibition, monoclonal peptide phage preincubated with PV scFv, Dsg plate (Dsg3 by paragraph 281)
Protocol: For ELISA inhibition assays, anti-idiotypic reagents were pre-incubated with PV mAbs for one hour at 37° C. prior to incubation on Dsg3 or Dsg1 ELISA plates (Rhigene/MBL), which were otherwise processed according to manufacturer's instructions. […] PV scFv binding, detected with HRP-conjugated anti-HA secondary antibody (Roche), was titrated to a final OD450 reading of 0.4-1.0, which was within the linear range of detection. […]
Where no end group is shown, it is not given here.
Here the recorded percent inhibition is given for each entry.
Field: numeric (%). Do not append units.

# count of solved cases: 3
• YSNKTPHLQWRL (peptide, not shown: large carriers, also: displayed on phage, fused to pIII coat protein, linker not given here, Monoclonal phage clone; tested as phage particle) [P7 peptide phage] = 12
• TTLTLRH (peptide, not shown: large carriers, also: displayed on phage, fused to pIII, Monoclonal phage clone; tested as phage particle) [P14 peptide phage] = 15
• ANKTSPFLMWRL (peptide, not shown: large carriers, also: displayed on phage, fused to pIII, Monoclonal phage clone from round 3 of screening with (D31)2/29 IgG; tested as phage particle) [P4 peptide phage] = 9

Lab book: percent inhibition of DLNYFTLSSKRE (peptide, not shown: large carriers, also: displayed on phage, fused to pIII coat protein, linker not given here, Control phage clone; tested as phage particle; also called control phage) [control peptide phage displaying a non-consensus sequence] noted as 2
